# experimentalSystem: T1, rat TrkB monomer (His ECD) (rat, UniProt Q63604 32-429)
# T1 construct: extracellular domain; amine-coupled to the chip
# T1 sequence (Q63604 32-429): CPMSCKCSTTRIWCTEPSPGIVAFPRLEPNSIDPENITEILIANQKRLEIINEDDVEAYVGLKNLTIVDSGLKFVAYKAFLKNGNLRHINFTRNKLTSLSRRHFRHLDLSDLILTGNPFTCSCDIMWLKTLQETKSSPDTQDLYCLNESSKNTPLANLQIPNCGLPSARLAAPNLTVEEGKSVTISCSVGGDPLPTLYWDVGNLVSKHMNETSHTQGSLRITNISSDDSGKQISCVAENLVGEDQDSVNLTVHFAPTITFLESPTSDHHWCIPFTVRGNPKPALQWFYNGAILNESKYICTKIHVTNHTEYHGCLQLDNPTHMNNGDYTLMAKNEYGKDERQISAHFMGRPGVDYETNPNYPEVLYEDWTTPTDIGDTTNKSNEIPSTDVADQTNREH
# methodSummary: SPR (Biacore), Fab over amine-coupled TrkB His ECD monomer, 25 C
# Experimental: TrkB monomers (H is ECD) of human, mouse, and rat were amine-coupled to the chip at levels of 2008, 1008, and 889RU respectively in an effort to give low capacity surfaces suitable for kinetic analysis. […] The concentrations of the Fab proteins are determined by ELISA and/or SDS-PAGE electrophoresis using a Fab of known concentration (as determined by amino acid analysis) as a standard. […] Equilibrium dissociation constant (KD) values are calculated as koff/kₒₙ.
quantityKind: kon (M⁻¹ s⁻¹)
Enter your answer as a number in M⁻¹ s⁻¹; do not include the unit.

{"binder": "4A6 (Fab, V domains shown, Fab) VH: QVQLVQSGAEVKKPGASVKVSCKASGYTFTNYDIIWVRQAPGQGLEWMGYINPYNRRREYNEKFKGRVTMTRDTSTSTVYMELSSLRSEDTAVYYCARLLKYRRFRYYAIDYWGQGTTVTVSS VL: DIQMTQSPSSLSASVGDRVTITCHASENVYSNLAWYQQKPGKAPKLLIYAASNLQSGVPSRFSGSGSGTDYTFTISSLQPEDIATYYCQHFWGSPFTFGQGTKLEIK", "reportedValue": "2.45e+06"}

What value of kon has been reported for the following binder? C2 (Fab, V domains shown, Fab) VH: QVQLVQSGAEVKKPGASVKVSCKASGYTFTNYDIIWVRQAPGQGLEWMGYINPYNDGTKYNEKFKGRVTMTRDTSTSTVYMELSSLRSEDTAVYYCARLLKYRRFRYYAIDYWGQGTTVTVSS VL: DIQMTQSPSSLSASVGDRVTITCRTSENVYSNLAWYQQKPGKAPKLLIYAASNLQSGVPSRFSGSGSGTDYTFTISSLQPEDIATYYCQHFWGSPFTFGQGTKLEIK
638000

What value of kon has been reported for the following binder? 4B12 (Fab, V domains shown, Fab) VH: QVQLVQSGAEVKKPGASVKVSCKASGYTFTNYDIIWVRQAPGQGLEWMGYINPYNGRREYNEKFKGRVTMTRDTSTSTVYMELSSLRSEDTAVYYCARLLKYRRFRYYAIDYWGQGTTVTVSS VL: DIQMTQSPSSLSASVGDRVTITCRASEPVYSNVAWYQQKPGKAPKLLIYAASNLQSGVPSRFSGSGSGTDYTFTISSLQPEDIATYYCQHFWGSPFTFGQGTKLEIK
1.99e+06

What value of kon has been reported for the following binder? A2 (Fab, V domains shown, Fab) VH: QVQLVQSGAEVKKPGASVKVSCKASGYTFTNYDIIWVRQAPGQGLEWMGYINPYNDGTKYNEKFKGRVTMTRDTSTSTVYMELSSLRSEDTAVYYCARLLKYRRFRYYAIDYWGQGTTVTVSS VL: DIQMTQSPSSLSASVGDRVTITCRASENVYSNLAWYQQKPGKAPKLLIYAASNLQSGVPSRFSGSGSGTDYTFTISSLQPEDIATYYCQHFWYSPWTFGQGTKLEIK
1.29e+06

Each recorded value in this set is attributed to patent US20100196390A1.
